System: SNB-75 CNS
Measurement Protocol: NCI-60 one-dose screen, 48 h
Test Conditions: 10 µM unless noted
About 83,000 compounds went through this panel and 20% of them were active in at least one assay; those are over-represented in the sample as a whole. Activity calls are given as the source filed them. The calls were made as follows: active = growth percent below 10; inactive = the rest.
Respond with a class label; see active, inactive

Outcome logged for O=C1c2cc3c(cc2-c2c1c1cc(Cl)c(Cl)cc1c(=O)n2C[C@H](O)CO)OCO3 in this assay:
active

Now try Cc1ccc(S(=O)(=O)n2cc(-c3csc(-c4cn(C)c5ncccc45)n3)c3ccccc32)cc1 .
inactive

Thanks! And CC(C)CC(CC1=CCC2CC1C2(C)C)C1=C(O)C(C)(C)C(=O)C(C)(C)C1=O (centres undefined) ?
inactive

// same read-out, input: CC(=O)C1=C(O)C=C2Oc3c(C(=O)/C=C/c4ccccc4)c(O)c(C)c(O)c3[C@]2(C)C1=O
inactive

Same thing, different compound: C[C@@H]1CC[C@@H]2[C@@H]1[C@H](OC(=O)/C=C/c1ccccc1)[C@]1(C3CCCCC3)C[C@@H](OC(=O)CO)[C@@]2(C)O1
inactive

Same for O=C1/C(=C\c2cn(C(=O)c3ccc(Cl)cc3)c3ccccc23)c2ccccc2N1c1c(Cl)cccc1Cl
inactive

Next compound up: CCCCCn1cnc2c(=S)nc[nH]c21
inactive

Follow-up item: Cc1nn(-c2ccccc2)c2nc(C)n(-c3ccc(Br)cc3)c(=O)c12
active

Thanks! And C[C@]12C[C@@H](c3ccoc3)OC(=O)[C@@H]1CC[C@]1(C)[C@@H]2CC[C@@H](O)[C@]1(C)O ?
inactive

What do you get for N#Cc1c(N)nc(N)nc1Nc1ccc(Br)cc1 ?
inactive

Ok, now COc1ccc(-c2cc(-c3cccnc3)nc3sc4c(=O)n(-c5ccc(C)cc5)nnc4c23)cc1OC
inactive
